Target under test: M4 muscarinic receptor (Homo sapiens, UniProt P08173)
Construct: expressed in transfected cells; host or cells: CHO (M4-CHO)
Sequence (P08173 1-479): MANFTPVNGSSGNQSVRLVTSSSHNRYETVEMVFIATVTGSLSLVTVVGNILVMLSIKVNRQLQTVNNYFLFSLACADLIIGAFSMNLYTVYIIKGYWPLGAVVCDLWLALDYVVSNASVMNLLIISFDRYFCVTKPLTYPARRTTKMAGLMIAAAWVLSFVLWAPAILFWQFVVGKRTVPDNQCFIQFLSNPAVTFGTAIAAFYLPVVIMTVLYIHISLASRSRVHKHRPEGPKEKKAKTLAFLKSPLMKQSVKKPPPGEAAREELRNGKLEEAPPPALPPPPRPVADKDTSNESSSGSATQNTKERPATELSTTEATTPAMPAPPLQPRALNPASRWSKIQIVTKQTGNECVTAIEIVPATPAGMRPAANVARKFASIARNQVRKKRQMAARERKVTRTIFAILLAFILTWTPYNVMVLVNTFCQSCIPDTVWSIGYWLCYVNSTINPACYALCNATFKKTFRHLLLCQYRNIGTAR
Assay info: Functional mobilization of intracellular calcium (FLIPR) in M4-CHO cells
Assay type: cell-based
Stated conditions: Table 4; 100% efficacy is the maximum response obtained with the Carbachol control
Recorded endpoint: Emax

For orientation, consider the following solved cases.
>>> df
                                   compound                         target_under_test  reported_result
0  CCOC(=O)N1CCC(N2CCC3(CC2)CN(c2ccccc2OC)c2ccc(F)cc23)CC1 [compound 717]  M4 muscarinic receptor (Homo sapiens, UniProt P08173)       25 to 100%
1  Cc1nsc(N2CC3(CCN(C4CC5CCC(C4)N5c4nc(C)ns4)CC3)c3ccccc32)n1 (stereo not drawn) [compound 451]  M4 muscarinic receptor (Homo sapiens, UniProt P08173)       25 to 100%
2  CC(=O)NC1CCC2(CCN(CC3CCOCC3)CC2)c2ccccc21 (stereo not drawn) [compound 616]  M4 muscarinic receptor (Homo sapiens, UniProt P08173)       25 to 100%

Give Emax (M4 muscarinic receptor (Homo sapiens, UniProt P08173)) of the following compound: CC(=O)N1CC2(CCN(C3CCN(c4cncc(-c5ccccc5C)n4)CC3)CC2)c2ccccc21 [compound 678] < 25%

Let us now turn to CC(=O)N[C@H]1CC2(CCN(C3CCC(C(C)(C)C)CC3)CC2)c2ccccc21 (stereo partly drawn) [compound 638] < 25%

Let us now turn to CCOC(=O)N1CCC(N2CCC3(CC2)CN(C(C)=O)c2c(-c4ccoc4)cccc23)CC1 [compound 559] 25 to 100%
